Entries and their mortality at 336 h values follow.
- Method: acute toxicity
- Settings: rat, in vivo, po; H-Wistar rats of both sexes, single 500 mg./kg. p.o., observed for 14 days; read-out: Perished animals (%)
- Description: The acute toxicity of the compounds of the formula (I) was tested on H-Wistar rats of both sexes, weighing 160 to 180 g. each. The compounds were administered in a single 500 mg./kg. dose, orally.

Compound	mortality at 336 h
CCC(O)(c1ccc(OCc2cccc(C)n2)cc1)c1cc(C)ccc1C (centres unmarked)	0%
CCC(O)(c1ccc(Cl)cc1)c1ccc(OCc2cccc(C)n2)cc1 (centres unmarked)	0%
